Could you please report measured IC50 for the items listed next?
target: Heat shock protein HSP 90-alpha (Homo sapiens); experiment: Displacement of Cy3B-GM from recombinant Hsp90alpha (unknown origin) after 24 hrs by fluorescence polarization assay

Data point: CC(C)NCCCn1c(Sc2cc3c(cc2N(C)C)OCO3)nc2c(N)ncnc21 ; IC50 = 0.1 µM

Data point: C#CCCCn1c([S+]([O-])c2ccc(Cl)cc2Cl)nc2c(N)ncnc21 (stereo not drawn) ; IC50 = 24.9 µM

Data point: C#CCCn1c(Sc2cc(Cl)cc(Cl)c2)nc2c(N)ncnc21 ; IC50 = > 50 µM

Data point: C#CCCCn1c(Sc2ccc(OC)cc2OC)nc2c(N)ncnc21 ; IC50 = > 50 µM

Data point: C#CCCCn1c(Sc2c(C)cc(C)cc2C)nc2c(N)ncnc21 ; IC50 = > 500 µM

Data point: C#CCCCCn1c(Sc2cc(Cl)cc(Cl)c2)nc2c(N)ncnc21 ; IC50 = > 50 µM

Data point: C#CCCCn1c(Sc2ccccc2OC)nc2c(N)ncnc21 ; IC50 = > 100 µM

Data point: C#CCCCn1c(Sc2cc(Cl)nc(Cl)c2)nc2c(N)ncnc21 ; IC50 = 8.3 µM
